Cited source for all entries: the supplement of paper PMC9233669

- Tested on: biotinyl-Val-oxazolone
- experimental.details: self-aminoacylation, catalytic enhancement (BVO) (fold over background); higher = more active; k-Seq, kA / k0A0; sequences stand for … in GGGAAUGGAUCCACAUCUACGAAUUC…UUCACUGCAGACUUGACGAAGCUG
Variants at the floor of the assay were thinned out.
Overview of recorded self-aminoacylation for various sequences
Provide a numeric answer; units are not to be included.

Known results for sequences:
{"sequence.data": "AAGUUUGCAAAUAGUCACAAG [Fam3.1 aminoacylation ribozyme variant]", "readout.name": "self-aminoacylation", "observed.result": 0.982}
{"sequence.data": "ACUCACCUAGGUCGUCGGGUG [Fam2.2 aminoacylation ribozyme variant]", "readout.name": "self-aminoacylation", "observed.result": 2.4}

-- ask Returns the measured self-aminoacylation for the input sequence. Input: AAGAUAGCUAAUAGUCGCAAG [Fam3.1 aminoacylation ribozyme variant]
-- reply 1.34

-- ask # self-aminoacylation lookup, item CUACAUCAAACAAUCGGUCUA [Fam1A.1 aminoacylation ribozyme variant]
-- reply 0.922

-- ask Looking for the measured self-aminoacylation of CCACACUUCGAGCAAUCGGUU [Fam1B.1 aminoacylation ribozyme variant] , can you help?
-- reply 1.63

-- ask Reported self-aminoacylation, sequence CCACUCCAAACAAUCGGUCUG [Fam1A.1 aminoacylation ribozyme variant] : ____
-- reply 1.22

-- ask Need self-aminoacylation of CUACUUCAAACAUUCGGUAUG [Fam1A.1 aminoacylation ribozyme variant] , thanks.
-- reply 1.12

-- ask Suppose we examine the sequence AUUCAGCUAGGACAUCGGGUG [Fam2.2 aminoacylation ribozyme variant] ; what self-aminoacylation value has been reported?
-- reply 3.53

-- ask If you can, please state the reported self-aminoacylation value of CCACUCUGCAAGCAAUCGGUC [Fam1B.1 aminoacylation ribozyme variant] .
-- reply 1.41

-- ask So what's the measured self-aminoacylation for this one? AUUACCCUGGUCAUCGGGUCA [Fam2.1 aminoacylation ribozyme variant]
-- reply 4.01

-- ask Entry under review: CAAUACUUCAAGCAAUCGGUC [Fam1B.1 aminoacylation ribozyme variant] . Reported self-aminoacylation?
-- reply 0.912

* * *

- System: biotinyl-Phe-oxazolone
- experimental.details: self-aminoacylation, catalytic enhancement (BFO) (fold over background); higher = more active; k-Seq, kA / k0A0; sequences stand for … in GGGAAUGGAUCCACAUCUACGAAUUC…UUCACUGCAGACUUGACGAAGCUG
This sample holds only a part of the variants without activity.
readout.name: self-aminoacylation
A bare number is all that is needed in reply.

Recorded results for 5 sequences are shown here.
{"sequence.data": "AAGUUUGCUAAGUGUCGCAAG [Fam3.1 aminoacylation ribozyme variant]", "self-aminoacylation": 1.9}
{"sequence.data": "ACUCACCUAGGUCCUCGGGUG [Fam2.2 aminoacylation ribozyme variant]", "self-aminoacylation": 37.1}
{"sequence.data": "AUUGACCUAGGUAAUCGGGUG [Fam2.2 aminoacylation ribozyme variant]", "self-aminoacylation": 15}
{"sequence.data": "AUUCUCCUACGUCAUCGGGUG [Fam2.2 aminoacylation ribozyme variant]", "self-aminoacylation": 57.3}
{"sequence.data": "AUCCACCUAGGUCAUCGUGUG [Fam2.2 aminoacylation ribozyme variant]", "self-aminoacylation": 3.96}

-- ask Would you kindly share the measured self-aminoacylation for AUUAUCCUGGACAUCGAGUGA [Fam2.1 aminoacylation ribozyme variant] ?
-- reply 34.7

-- ask Can you look up the measured self-aminoacylation of AUUACGCAGGUCAUCGAGUGA [Fam2.1 aminoacylation ribozyme variant] for me?
-- reply 3.59

-- ask Record request: self-aminoacylation value, item CUACUUCCAACAAUCGGUCAG [Fam1A.1 aminoacylation ribozyme variant]
-- reply 1.04

-- ask Query (sequence): GUACUUCAAACAAUCGGUCGG [Fam1A.1 aminoacylation ribozyme variant] ; field requested: self-aminoacylation
-- reply 37.8

-- ask Entry under review: CUACCUCAAACAAUCGGUCGG [Fam1A.1 aminoacylation ribozyme variant] . Reported self-aminoacylation?
-- reply 1.56

-- ask Need self-aminoacylation, item ACGUUUGCUAAUAGUCGCAUG [Fam3.1 aminoacylation ribozyme variant]
-- reply 3.06

-- ask For AUUACCCUGAUCAUCGAGGGA [Fam2.1 aminoacylation ribozyme variant] , what is its reported self-aminoacylation?
-- reply 0.999

-- ask Any idea what its self-aminoacylation is? The sequence is CUACCUCAAACAAUAGGUCUG [Fam1A.1 aminoacylation ribozyme variant]
-- reply 1.08

* * *

- System: biotinyl-Leu-oxazolone
- experimental.details: self-aminoacylation, catalytic enhancement (BLO) (fold over background); higher = more active; k-Seq, kA / k0A0; sequences stand for … in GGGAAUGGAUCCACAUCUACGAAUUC…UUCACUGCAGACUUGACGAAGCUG
This sample holds only a part of the variants without activity.
Would you mind labelling by self-aminoacylation? At or over 2 is Yes, under is No.

{"sequence.data": "AAAUUUGCUAAUAGUCGCAUG [Fam3.1 aminoacylation ribozyme variant]", "tested.target": "biotinyl-Leu-oxazolone", "assigned.class": "Yes"}
{"sequence.data": "AUUCACCUAGGUCAUGGAGUG [Fam2.2 aminoacylation ribozyme variant]", "tested.target": "biotinyl-Leu-oxazolone", "assigned.class": "Yes"}
{"sequence.data": "ACACACUUCAAGCAAGCGGUC [Fam1B.1 aminoacylation ribozyme variant]", "tested.target": "biotinyl-Leu-oxazolone", "assigned.class": "No"}
{"sequence.data": "CUAGCUCAAACAAUCGGUCUG [Fam1A.1 aminoacylation ribozyme variant]", "tested.target": "biotinyl-Leu-oxazolone", "assigned.class": "No"}
{"sequence.data": "AUUACCAGGGUCAUCGAGUGA [Fam2.1 aminoacylation ribozyme variant]", "tested.target": "biotinyl-Leu-oxazolone", "assigned.class": "Yes"}

-- ask Threshold query (self-aminoacylation >= 2) on AUUCAUCUAGGUCAUAGGGUG [Fam2.2 aminoacylation ribozyme variant]
-- reply Yes

-- ask Is self-aminoacylation for CCACACUUCGAGCAAUAGGUC [Fam1B.1 aminoacylation ribozyme variant] at or above 2?
-- reply No

-- ask Reported self-aminoacylation reaches at least 2 for AUUCGCGUAGGUCAUCGGGUG [Fam2.2 aminoacylation ribozyme variant] ?
-- reply Yes

-- ask Kindly determine if self-aminoacylation recorded for AUACACCUAGGUCAACGGGUG [Fam2.2 aminoacylation ribozyme variant] is above or exactly 2.
-- reply Yes

* * *

Parameter: self-aminoacylation. Scope: all listed entries.
- Test system: biotinyl-Ile-oxazolone
- experimental.details: self-aminoacylation, catalytic enhancement (BIO) (fold over background); higher = more active; k-Seq, kA / k0A0; sequences stand for … in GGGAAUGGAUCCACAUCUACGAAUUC…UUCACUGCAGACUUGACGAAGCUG
This sample holds only a part of the variants without activity.
When you answer, write just the number.

{"sequence.data": "CCACACUACAAGCGAUCGGUC [Fam1B.1 aminoacylation ribozyme variant]", "self-aminoacylation": 1.09}
{"sequence.data": "AUACACCUAGGUCAUCGGAUG [Fam2.2 aminoacylation ribozyme variant]", "self-aminoacylation": 1.03}

-- ask Would you kindly share the measured self-aminoacylation for CCACUCUUCAAACAAUCGGUC [Fam1B.1 aminoacylation ribozyme variant] ?
-- reply 1.23

-- ask # query: self-aminoacylation of entry AAGUUUGCAAAUAGUCGCAAU [Fam3.1 aminoacylation ribozyme variant]
-- reply 1.35

-- ask Field request: self-aminoacylation | item: CCGCAGUUCAAGCAAUCGGUC [Fam1B.1 aminoacylation ribozyme variant]
-- reply 1.58

* * *

Quick list: self-aminoacylation per entry.
- Tested on: biotinyl-Leu-oxazolone
- experimental.details: self-aminoacylation, catalytic enhancement (BLO) (fold over background); higher = more active; k-Seq, kA / k0A0; sequences stand for … in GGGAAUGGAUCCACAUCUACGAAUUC…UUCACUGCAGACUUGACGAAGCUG
Variants at the floor of the assay were thinned out.

Worked set:
{"sequence.data": "GCUCACUUCAAGCAAUCGGUC [Fam1B.1 aminoacylation ribozyme variant]", "self-aminoacylation": 1.77}
{"sequence.data": "CCACACUGCAAGCAAUCGGUG [Fam1B.1 aminoacylation ribozyme variant]", "self-aminoacylation": 7.11}
{"sequence.data": "CCGCACUUAAAGCAAUCGGUC [Fam1B.1 aminoacylation ribozyme variant]", "self-aminoacylation": 1.05}
{"sequence.data": "AUUCACCUAGGUCAUCUGGCG [Fam2.2 aminoacylation ribozyme variant]", "self-aminoacylation": 2.88}
{"sequence.data": "CCAGACUUCAAACAAUCGGUC [Fam1B.1 aminoacylation ribozyme variant]", "self-aminoacylation": 2.19}

Now examine the next entry.
-- ask May I ask what self-aminoacylation has been recorded for AUUACCCUGGUCUUCGACUGA [Fam2.1 aminoacylation ribozyme variant] ?
-- reply 0.717

* * *

# self-aminoacylation per entry
- Tested on: biotinyl-Val-oxazolone
- experimental.details: self-aminoacylation, catalytic enhancement (BVO) (fold over background); higher = more active; k-Seq, kA / k0A0; sequences stand for … in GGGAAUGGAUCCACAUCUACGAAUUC…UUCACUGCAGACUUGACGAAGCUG
This sample holds only a part of the variants without activity.
Please give the numeric answer without any surrounding text.

Solved cases (4 shown):
{"sequence.data": "AUUCACCUAUGUCAUCGGGGG [Fam2.2 aminoacylation ribozyme variant]", "self-aminoacylation": 1.38}
{"sequence.data": "AUUUUCCUGGUCAUCGAGUGA [Fam2.1 aminoacylation ribozyme variant]", "self-aminoacylation": 4.13}
{"sequence.data": "AAGUAUGCCAAUAGUCGCAAG [Fam3.1 aminoacylation ribozyme variant]", "self-aminoacylation": 1.46}
{"sequence.data": "AUUACCCUGGUCAUCGAGGGC [Fam2.1 aminoacylation ribozyme variant]", "self-aminoacylation": 1.24}

-- ask What measured self-aminoacylation goes with UUUCACCUAGUUCAUCGGGUG [Fam2.2 aminoacylation ribozyme variant] ?
-- reply 3.09

-- ask Field request: self-aminoacylation | item: AAGUUUGCUAAUUGUCGCAUG [Fam3.1 aminoacylation ribozyme variant]
-- reply 1.07

-- ask Form field: reported self-aminoacylation of GUUACCCUUGUCAUCGAGUGA [Fam2.1 aminoacylation ribozyme variant]
-- reply 4.44

-- ask Field request: self-aminoacylation | item: CCACACCUCAAACAAUCGGUC [Fam1B.1 aminoacylation ribozyme variant]
-- reply 1.13

-- ask Recorded self-aminoacylation for AUUACCGUGGUGAUCGAGUGA [Fam2.1 aminoacylation ribozyme variant] , please?
-- reply 2.31

-- ask Return reported self-aminoacylation; argument: CCACGCUCCAAGCAAUCGGUC [Fam1B.1 aminoacylation ribozyme variant]
-- reply 1.47

-- ask Sample CCUCCCUUCAAGCAAUCGGUC [Fam1B.1 aminoacylation ribozyme variant] — what was its self-aminoacylation?
-- reply 1.13

-- ask Look up self-aminoacylation for this sequence: AGCACCCUGGUCAUCGAGUGA [Fam2.1 aminoacylation ribozyme variant]
-- reply 3.89

-- ask What does the data say about its self-aminoacylation? Entry: AUUAUCCUGGUGAUCGAGUGA [Fam2.1 aminoacylation ribozyme variant]
-- reply 3.46

-- ask Give its self-aminoacylation value. Item: AUUGACCUAGGUAAUCGGGUG [Fam2.2 aminoacylation ribozyme variant]
-- reply 3
